- System: U2OS
- assay overview: Multiplex assay against U2OS
- Assay type: toxicity, cell-based
- assay context: human, 24 h, 10 µM, compound concentration 10 uM, replicate 2
Below: a set of entries, each annotated with reported Population Apoptotic (%).

- molecule: "COc1cc(N2CCN(C)CC2)ccc1Nc1ncc2c(n1)N(C)c1ccccc1C(=O)N2C"
  assayed system: "U2OS"
  Population Apoptotic (%): 76
- molecule: "CCn1c(=O)c(-c2ccc(-c3cncs3)cc2Cl)cc2cnc(Nc3ccc(N4CCN(C)CC4)cc3)nc21"
  assayed system: "U2OS"
  Population Apoptotic (%): 27
- molecule: "O=C(Cc1ccc(-c2ccc(OCCN3CCOCC3)cc2)cn1)NCc1ccccc1 [TIRBANIBULIN]"
  assayed system: "U2OS"
  Population Apoptotic (%): 66
- molecule: "CN1CCC(=C2c3ccccc3CC(=O)c3sccc32)CC1.O=C(O)/C=C/C(=O)O [KETOTIFEN FUMARATE]"
  assayed system: "U2OS"
  Population Apoptotic (%): 59
- molecule: "Cc1ccc(C(=O)Nc2cccc(C(F)(F)F)c2)cc1Nc1nc(-c2cccnc2)nc2c1cnn2C"
  assayed system: "U2OS"
  Population Apoptotic (%): 90
- molecule: "O=C(Nc1ccc(Cl)cc1)Nc1cccc(-c2cccc(N3CCCC3)n2)c1"
  assayed system: "U2OS"
  Population Apoptotic (%): 72
- molecule: "O=C(Nc1ccc(-c2ccnc(Nc3ccc(N4CCOCC4)cc3)n2)cc1)[C@@H]1CCCN1"
  assayed system: "U2OS"
  Population Apoptotic (%): 58
- molecule: "O=C1N/C(=N/c2ccccc2F)S/C1=C\\c1ccc(C(=O)O)cc1"
  assayed system: "U2OS"
  Population Apoptotic (%): 60
- molecule: "CCCS(=O)(=O)Nc1ccc(F)c(C(=O)c2c[nH]c3ncc(Cl)cc23)c1F [PLX-4720]"
  assayed system: "U2OS"
  Population Apoptotic (%): 57

----------
- Test system: Fibroblast
- assay overview: Multiplex assay against human fibroblast
- Assay type: toxicity, cell-based
- assay context: 12 h, 10 µM, compound concentration 10 uM, replicate 2
assay endpoint: Population Normal (%)

- molecule: "CCN1CCN(c2ccc(Nc3cc(N(C)C(=O)Nc4c(Cl)c(OC)cc(OC)c4Cl)ncn3)cc2)CC1 [INFIGRATINIB]"
  unit: "%"
  experimental result: 65
- molecule: "CN1CCC(=C2c3ccccc3CC(=O)c3sccc32)CC1.O=C(O)/C=C/C(=O)O [KETOTIFEN FUMARATE]"
  unit: "%"
  experimental result: 98
- molecule: "CCc1cccc(CC)c1NC(=O)c1nn(C)c2c1CCc1cnc(Nc3ccc(N4CCN(C)CC4)cc3OC)nc1-2"
  unit: "%"
  experimental result: 78
- molecule: "NC(=O)c1cccc(-c2cc(Nc3ccc(OC(F)(F)F)cc3)ncn2)c1"
  unit: "%"
  experimental result: 60
- molecule: "Cn1nc(C(F)(F)F)cc1-c1cnc(N2CCc3cc(S(=O)(=O)Nc4c(F)cc(Cl)cc4F)cc(N4CCCC4=O)c32)nc1 [TP-020]"
  unit: "%"
  experimental result: 58
- molecule: "CNc1cc(Oc2cc(C(=O)Nc3cc(N4CCN(C)CC4)cc(C(F)(F)F)c3)ccc2C)ncn1"
  unit: "%"
  experimental result: 66
- molecule: "CCCn1c(=O)c2[nH]c(-c3cnn(Cc4cccc(C(F)(F)F)c4)c3)nc2n(CC)c1=O [GS 6201]"
  unit: "%"
  experimental result: 94
- molecule: "CCOc1cc(C(=O)N2CCC(N3CCN(C)CC3)CC2)ccc1Nc1ncc2c(n1)N(C1CCCC1)c1ccccc1C(=O)N2C"
  unit: "%"
  experimental result: 93
